biological target: recombinant human thymidylate synthase (hTS) (Homo sapiens, UniProt P04818); construct: made in house; experiment: hTS inhibition assay (spectrophotometric, absorbance at 340 nm); assay type: biochemical; conditions: at 500 µM and r.t.
Sequence (P04818 whole entry): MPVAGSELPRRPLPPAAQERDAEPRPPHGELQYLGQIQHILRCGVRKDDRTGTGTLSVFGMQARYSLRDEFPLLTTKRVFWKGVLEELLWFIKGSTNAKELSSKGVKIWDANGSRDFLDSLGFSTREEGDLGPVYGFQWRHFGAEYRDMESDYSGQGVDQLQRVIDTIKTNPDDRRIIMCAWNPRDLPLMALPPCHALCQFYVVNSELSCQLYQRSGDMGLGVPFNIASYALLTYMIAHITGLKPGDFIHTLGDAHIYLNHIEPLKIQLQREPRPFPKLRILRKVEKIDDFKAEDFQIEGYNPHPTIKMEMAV
Starred links: 1 amine or outer side, 2 acyl side, 3 side chain; linkers in the order of their positions; H or OH if unused. Positions of bridges follow the written chain, without caps; N, C: chain ends. Non-standard residues stand in square brackets, D forms with d. Residues, ends and D or L forms follow the SMILES beside them. Cysteamide = C(CS[*:3])N[*:1]
measurementKind: % inhibition of hTS

INSERT INTO results (compound, result) VALUES
  ('CC(C)C[C@@H]1NC(=O)[C@@H](CCC(N)=O)NC(=O)[C@@H](NC(=O)[C@H](CO)NC(=O)[C@@H](N)CC(C)C)CSSCCNC(=O)[C@H](CCCNC(=N)N)NC(=O)[C@H](CCC(N)=O)NC(=O)[C@H](Cc2ccc(O)cc2)NC1=O [Peptide 3, Leu-Ser-c[Cys-D-Gln-Leu-Tyr-Gln-Arg-CAM]] (H-LSC[dQ]LYQR-Cysteamide; disulfide 3-C)', 'inactive'),
  ('CC(C)C[C@@H]1NC(=O)[C@H](CCC(N)=O)NC(=O)[C@@H]2CCCN2C(=O)[C@@H](NC(=O)[C@@H](N)CC(C)C)CSSC[C@@H](C(=O)N[C@@H](CCC(N)=O)C(=O)N[C@@H](CCCNC(=N)N)C(=O)O)NC1=O [Peptide 6, Leu-c[Cys-Pro-Gln-Leu-Cys]-Gln-Arg] (H-LCPQLCQR-OH; disulfide 2-6)', 'inactive'),
  ('CC(C)C[C@@H]1NC(=O)[C@@H](CCC(N)=O)NC(=O)[C@@H](NC(=O)[C@H](CO)NC(=O)[C@@H](N)CC(C)C)CSSC[C@@H](C(=O)O)NC(=O)[C@H](CCC(N)=O)NC(=O)[C@H](Cc2ccc(O)cc2)NC1=O [Peptide 4, Leu-Ser-c[Cys-D-Gln-Leu-Tyr-Gln-Cys]] (H-LSC[dQ]LYQC-OH; disulfide 3-8)', 'inactive');

---

system: IGROV-1 cells; experiment: Cytotoxicity, crystal violet cell growth assay, peptides transfected with SAINT-PhD; format: cell-based, human; conditions: at 10 and 25 µM, ranking among the 10 cPs, SAINT-PhD delivery
Positions of bridges follow the written chain, without caps; N, C: chain ends. Non-standard residues stand in square brackets, D forms with d. Residues, ends and D or L forms follow the SMILES beside them.
measurementKind: cytotoxicity (in words)

INSERT INTO results (compound, targetdesc, measurementkind, result) VALUES
  ('CC(C)C[C@@H]1NC(=O)[C@H](CCC(N)=O)NC(=O)[C@@H]2CCCN2C(=O)[C@@H](NC(=O)[C@@H](N)CC(C)C)CSSC[C@@H](C(=O)O)NC(=O)[C@H](CCC(N)=O)NC(=O)[C@H](Cc2ccc(O)cc2)NC1=O [Peptide 8, Leu-c[Cys-Pro-Gln-Leu-Tyr-Gln-Cys]] (H-LCPQLYQC-OH; disulfide 2-8)', 'IGROV-1 cells', 'cytotoxicity (in words)', 'least active'),
  ('CC(C)C[C@@H]1NC(=O)[C@@H](CCC(N)=O)NC(=O)[C@@H](NC(=O)[C@H](CO)NC(=O)[C@@H](N)CC(C)C)CSSC[C@@H](C(=O)O)NC(=O)[C@H](CCC(N)=O)NC(=O)[C@H](Cc2ccc(O)cc2)NC1=O [Peptide 4, Leu-Ser-c[Cys-D-Gln-Leu-Tyr-Gln-Cys]] (H-LSC[dQ]LYQC-OH; disulfide 3-8)', 'IGROV-1 cells', 'cytotoxicity (in words)', 'least active');
